Test system: U-87 MG
Experimental Details: Antiproliferative activity against human U-87 MG cells harboring wildtype IDH1 assessed as inhibition of cell growth incubated for 24 hrs by CCK8 assay
Assay type: functional, cell-based, U-87MG ATCC
pIC50: −log10 of the molar value.
Entry flag: 1 if pIC50 reaches 5; -1 if it does not.

Prompt line: Quick check, pIC50 >= 5? `CC(C)[C@H]1COC(=O)N1c1ccnc(N[C@@H](C)c2ccc(-c3ccc(NC(=O)COc4cccnc4)cc3)cc2)n1`
Response line: 1

----------
Item-by-item account of pIC50
Test system: U-87 MG
Format: functional, cell-based, U-87MG ATCC
Condition Description: Homo sapiens, 72 h
Keep in mind that pIC50 stands for -log10 of concentration in molar terms.

Here is how some compounds turned out for pIC50.
CC(C)[C@H]1COC(=O)N1c1ccnc(N[C@@H](C)c2ccc(-c3ccc(NC(=O)c4ccc5nccn5c4)cc3)cc2)n1 ... 5.84
Cc1cc([C@H](C)Nc2nccc(N3C(=O)OC[C@@H]3[C@H](C)F)n2)ncc1-c1ccnc(C(F)(F)F)c1 ... 6.44
C[C@H](Nc1nccc(N2C(=O)OC[C@@H]2[C@H](C)F)n1)c1ccc(-c2ccc(NC(=O)COc3cccnc3)cc2)cc1 ... 6.49
N#Cc1ccnc(N2C(=O)CC[C@H]2C(=O)N(c2cncc(F)c2)[C@H](C(=O)NC2CC(F)(F)C2)c2ccccc2Cl)c1 ... 6.01
O=C(/C=C/c1cccnc1)NCCCCC1CCN(C(=O)c2ccccc2)CC1 ... 6.39

# context switch: different compound, same pIC50
What the record says about `CC(C)[C@H]1COC(=O)N1c1ccnc(N[C@@H](C)c2ccc(-c3ccc(NC(=O)COc4cccnc4)cc3)cc2)n1` : pIC50 is 6.24
